method.notes: Rat L6 cell proliferation inhibition test
Assay type: cell-based
measurement.setup: L6 cells (rat skeletal myoblasts), Table 1, Alamar Blue, read-out: EC50 cytotoxicity L6
property: EC50 at 72 h (µg/mL)
The reply should contain only the number, in µg/mL.

Before answering, review these 2 worked examples.
entry.smiles	value.units	endpoint.result
CCn1c(=O)/c(=C2\SCCN2C)s/c1=C1\S/C(=N\c2sc3cc(Cl)ccc3[n+]2C)N(C(C)C)C1=O	µg/mL	1.44
CCn1c(=O)/c(=C2\C=CC=CN2C)s/c1=C1\S/C(=N\c2sc3cc(Cl)ccc3[n+]2C)N(C(C)C)C1=O	µg/mL	10.5

# input for lookup
EC50 at 72 h lookup needed for "CCN1C(=O)/C(=c2/s/c(=C3/SCCN3C)c(=O)n2CC)S/C1=N\c1sc2cc(Cl)ccc2[n+]1C" , thanks. 6.9

###

The compounds listed here are annotated with their EC50 at 72 h.
method.notes: Rat L6 cell proliferation inhibition test
Type: cell-based
measurement.setup: L6 cells (rat skeletal myoblasts), Table 1, Alamar Blue, read-out: EC50 cytotoxicity L6
Report the value in µg/mL with no unit label.

Example cases with answers are listed next.
compound	endpoint.result
CCN1C(=O)/C(=c2/s/c(=C3/C=CC=CN3C)c(=O)n2CC)S/C1=N\c1sc2cc(Cl)ccc2[n+]1C [Compound B-2]	27
CCN1C(=O)/C(=C2\C=Cc3ccccc3N2C)S/C1=N\c1sc2cc(Cl)ccc2[n+]1C [Compound A-2]	5.5
CCN1C(=O)/C(=c2\nc3c(s2)=CC=CN3C)S/C1=N\c1sc2ccccc2[n+]1C.[Cl-] [Compound A-21]	6.01
CCn1c(=O)/c(=C2\SCCN2C)s/c1=C1\S/C(=N\c2scc[n+]2C)N(C(C)C)C1=O [Compound B-35]	21.8
CCN1C(=O)/C(=c2\nc3c(s2)=CC=CN3C)S/C1=N\c1scc[n+]1C.[Cl-] [Compound A-20]	24.3

Using the record for CCN1C(=O)/C(=C2\Sc3ccccc3N2C)S/C1=N\c1sc2cc(Cl)ccc2[n+]1C [Compound A-1] , report its EC50 at 72 h. 37.9

###

Test system: Plasmodium berghei NK 65 strain
method.notes: animal or person
Format: in vivo
measurement.setup: dose 25 mg/kg/d intraperitoneally, 4 days, P. berghei infected ICR mice
Label scheme for Recovery Rate (suppression): small value = under 70%, mid value = from 70% up to 90%, large value = 90% and over

entry.smiles	test.target	assigned.class
CCN1C(=O)/C(=c2/s/c(=C3/SCCN3C)c(=O)n2CC)S/C1=N\c1scc[n+]1C	Plasmodium berghei NK 65 strain	small value
CCn1c(=O)/c(=c2\nc3c(o2)=CC=CN3C)s/c1=C1\S/C(=N\c2sc3cc(Cl)ccc3[n+]2C)N(Cc2ccccc2)C1=O	Plasmodium berghei NK 65 strain	small value
C=CCN1C(=O)/C(=c2/s/c(=C3/SCCN3C)c(=O)n2CC)S/C1=N\c1scc[n+]1C	Plasmodium berghei NK 65 strain	small value

Into which bin does this molecule go? "CCN1C(=O)/C(=c2/s/c(=C3/C=CC=CN3C)c(=O)n2CC)S/C1=N\c1sc2ccccc2[n+]1C" large value

Please indicate the class for "C=CCN1C(=O)/C(=c2/s/c(=C3/SCCN3C)c(=O)n2CC)S/C1=N\c1sc2cc(Cl)ccc2[n+]1C" based on its Recovery Rate (suppression). mid value

Form field 'band' for "CCN1C(=O)/C(=c2/s/c(=C3/C=CC=CN3C)c(=O)n2CC)S/C1=N\c1sc2cc(OC)ccc2[n+]1C" large value

# bin label for "CCN1C(=O)/C(=c2/s/c(=C3/SCCN3C)c(=O)n2CC)S/C1=N\c1sc2cc(OC)ccc2[n+]1C" large value

Please indicate the class for "CCN1C(=O)/C(=c2/s/c(=c3/nc4c(o3)=CC=CN4C)c(=O)n2CC)S/C1=N\c1scc[n+]1C" based on its Recovery Rate (suppression). small value

Please classify: "CCn1c(=O)/c(=C2\SCCN2C)s/c1=C1\S/C(=N\c2scc[n+]2C)N(Cc2ccccc2)C1=O" mid value

Lab note: which band did "C=CCN1C(=O)/C(=c2/s/c(=C3/C=CC=CN3C)c(=O)n2CC)S/C1=N\c1sc2cc(Cl)ccc2[n+]1C" land in? large value

// bin(item) where item = "CCn1c(=O)/c(=C2\SCCN2C)s/c1=C1\S/C(=N\c2sc3cc(Cl)ccc3[n+]2C)N(c2ccc(OC)cc2)C1=O" small value

Which category fits this record: "CCn1c(=O)/c(=c2\nc3c(o2)=CC=CN3C)s/c1=C1\S/C(=N\c2scc[n+]2C)N(Cc2ccccc2)C1=O" mid value

Form: Item = "CCn1c(=O)/c(=C2\C=CC=CN2C)s/c1=C1\S/C(=N\c2scc[n+]2C)N(Cc2ccccc2)C1=O" ; Class = ? mid value

Determine which band this molecule sits in: "CCN1C(=O)/C(=c2/s/c(=C3/C=CC=CN3C)c(=O)n2CC)S/C1=N\c1sc2cc(F)ccc2[n+]1C" mid value

###

Tested on: Rat-derived L6 cells (rat skeletal myoblast cell)
method.notes: Rat L6 cell proliferation inhibition test
Type: cell-based
measurement.setup: Table 3, 72 hours, Alamar Blue
property: EC50 cytotoxicity L6 (µg/mL)
Kindly answer with a numeric value in µg/mL, unit omitted.

Completed entries (count: 3):
entry.smiles	EC50 cytotoxicity L6 / µg/mL
CCN1C(=O)/C(=c2/s/c(=C3/C=CC=CN3C)c(=O)n2CC)S/C1=N\c1sc2ccccc2[n+]1C	7.46
CCN1C(=O)/C(=c2/s/c(=C3/SCCN3C)c(=O)n2CC)S/C1=N\c1sc2cc(F)ccc2[n+]1C	9.83
CCN1C(=O)/C(=c2/s/c(=C3/SCCN3C)c(=O)n2CC)S/C1=N\c1sc2cc(OC)ccc2[n+]1C	1.98

Which EC50 cytotoxicity L6 value belongs to "CCN1C(=O)/C(=c2/s/c(=C3/C=CC=CN3C)c(=O)n2CC)S/C1=N\c1sc2cc(OC)ccc2[n+]1C" ? 5.01

What does the data say about its EC50 cytotoxicity L6? Entry: "C=CCN1C(=O)/C(=c2/s/c(=C3/SCCN3C)c(=O)n2CC)S/C1=N\c1sc2cc(Cl)ccc2[n+]1C" 3.72

###

method.notes: Rat L6 cell proliferation inhibition test
Format: cell-based
measurement.setup: Table 2, rat L6 cells, Alamar Blue, read-out: EC50 cytotoxicity L6
property: EC50 at 72 h (µg/mL)
Number only, in µg/mL; omit the unit.

// EC50 at 72 h lookup, key: Nc1nc(N)nc(Nc2ccc([As]3SCC(CO)S3)cc2)n1 (stereo not shown) [Melarsoprol, reference compound] 3.1

###

Test system: Plasmodium Falciparum k1 strain
method.notes: Chloroquine-resistant tropical malaria protozoa proliferation inhibition screening test
Format: cell-based
measurement.setup: EC50 rat L6 cells / EC50 Chloroquine-resistant malaria protozoa
property: Selective toxicity

Observe how each entry below is paired with its result.
compound	Selective toxicity
CN1/C(=c2\s/c(=C\c3cccc[n+]3CCC(=O)O)n(CC3CO3)c2=O)Sc2ccccc21 (stereo not drawn) [Compound S-3, reference compound]	>320
CCN1C(=O)/C(=C2\Sc3ccccc3N2C)S/C1=N\c1sc2cc(Cl)ccc2[n+]1C [Compound A-1]	255
CCn1c(=O)/c(=C2\SCCN2C)s/c1=C1\S/C(=N\c2sc3cc(Cl)ccc3[n+]2C)N(C(C)C)C1=O [Compound B-37]	160
CCN1C(=O)/C(=c2\nc3c(s2)=CC=CN3C)S/C1=N\c1sc2ccccc2[n+]1C.[Cl-] [Compound A-21]	3005
CCN1C(=O)/C(=c2/s/c(=C3/SCCN3C)c(=O)n2CC)S/C1=N\c1sc2cc(Cl)ccc2[n+]1C [Compound B-12]	507
CCn1c(=O)/c(=C2\C=CC=CN2C)s/c1=C1\S/C(=N\c2sc3cc(Cl)ccc3[n+]2C)N(C(C)C)C1=O [Compound B-36]	1165
CCN1C(=O)/C(=C2\C=Cc3ccccc3N2C)S/C1=N\c1sc2cc(Cl)ccc2[n+]1C [Compound A-2]	2500
CCN1C(=O)/C(=c2/s/c(=C3/C=CC=CN3C)c(=O)n2CC)S/C1=N\c1sc2cc(Cl)ccc2[n+]1C [Compound B-2]	4495
CCN1C(=O)/C(=c2\nc3c(s2)=CC=CN3C)S/C1=N\c1scc[n+]1C.[Cl-] [Compound A-20]	2211
CCN1C(=O)/C(=c2\nc3c(s2)=CC=CN3C)S/C1=N\c1cccc[n+]1C.[Cl-] [Compound A-22]	>782

Which Selective toxicity value is on record for CCN(CC)CCCC(C)Nc1ccnc2cc(Cl)ccc12 (stereo not drawn) [Chloroquine, reference compound] ? 1300

Query: Selective toxicity; subject: CCn1c(=O)/c(=C2\SCCN2C)s/c1=C1\S/C(=N\c2scc[n+]2C)N(C(C)C)C1=O [Compound B-35] 3630

###

EC50 cytotoxicity L6 values by entry
System: Rat-derived L6 cells (rat skeletal myoblast cell)
method.notes: Rat L6 cell proliferation inhibition test
Assay type: cell-based
measurement.setup: Table 1, 72 hours, Alamar Blue

Consider the reported EC50 cytotoxicity L6 for these compounds:
entry.smiles	EC50 cytotoxicity L6
CCN1C(=O)/C(=c2/s/c(=C3/C=CC=CN3C)c(=O)n2CC)S/C1=N\c1sc2cc(OC)ccc2[n+]1C	5.01 µg/mL
C=CCN1C(=O)/C(=c2/s/c(=C3/C=CC=CN3C)c(=O)n2CC)S/C1=N\c1scc[n+]1C	27.38 µg/mL
CCN1C(=O)/C(=c2/s/c(=C3/C=CC=CN3C)c(=O)n2CC)S/C1=N\c1sc2ccccc2[n+]1C	7.46 µg/mL
CCN1C(=O)/C(=c2/s/c(=C3/C=CC=CN3C)c(=O)n2CC)S/C1=N\c1sc2cc(F)ccc2[n+]1C	15.88 µg/mL
CCN1C(=O)/C(=C/C=C2\Sc3ccccc3N2C)S/C1=N\c1sc2cc(Cl)ccc2[n+]1C	11.33 µg/mL

Record request: EC50 cytotoxicity L6 value, item "CCN1C(=O)/C(=c2/s/c(=C3/SCCN3C)c(=O)n2CC)S/C1=N\c1sc2cc(F)ccc2[n+]1C" 9.83 µg/mL

GET /values?readout=EC50 cytotoxicity L6&item= "CCn1c(=O)/c(=c2\nc3c(o2)=CC=CN3C)s/c1=C1\S/C(=N\c2scc[n+]2C)N(Cc2ccccc2)C1=O" >90 µg/mL
